Below: a set of entries, each annotated with reported normalized growth.
assay: chemical genetic growth profiling, strain panel (AID 1159580);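 also: tested at 20 µM; growth read once vehicle control cultures reached saturation at 30 °C; 1 = growth at the plate median or of vehicle wells; lower values mean less growth of the strain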; conditions: S. cerevisiae deletion strains, growth OD, locus YLR027C, strain aat2, hits give low values
Hit rate of the full screen: of about 5,500 compounds, about 2,000 (36%) were called active. Inconclusive results (about 18%) are left out. This is one part of the list.

>  <Compound>
Cc1oncc1C(=O)Nc1ccc(C(F)(F)F)cc1

>  <normalized growth>
0.919

$$$$
>  <Compound>
COc1ccc2c(c1)OCC(Cc1ccc(O)c(OC)c1)C2=O (stereo unspecified)

>  <normalized growth>
0.964

$$$$
>  <Compound>
COc1ccc(-c2oc3cc(OC)c(OC)c(OC)c3c(=O)c2OC)cc1

>  <normalized growth>
0.96

$$$$
>  <Compound>
COc1ccc2c(c1)OCC(Cc1ccc(OC)c(O)c1)C2=O (stereo unspecified)

>  <normalized growth>
0.933

$$$$
>  <Compound>
COc1cc2c(cc1OC)C1(O)C(=O)c3ccc(O)c(C(=O)O)c3OC1CO2 (stereo unspecified)

>  <normalized growth>
0.998

$$$$
>  <Compound>
COc1ccc2oc3ccccc3c(=O)c2c1

>  <normalized growth>
0.855

$$$$
